These entries and their values trace back to patent US20240207238A1.

# tgt: PTPN2 (Homo sapiens (Human))
# Sequence (P17706 whole entry): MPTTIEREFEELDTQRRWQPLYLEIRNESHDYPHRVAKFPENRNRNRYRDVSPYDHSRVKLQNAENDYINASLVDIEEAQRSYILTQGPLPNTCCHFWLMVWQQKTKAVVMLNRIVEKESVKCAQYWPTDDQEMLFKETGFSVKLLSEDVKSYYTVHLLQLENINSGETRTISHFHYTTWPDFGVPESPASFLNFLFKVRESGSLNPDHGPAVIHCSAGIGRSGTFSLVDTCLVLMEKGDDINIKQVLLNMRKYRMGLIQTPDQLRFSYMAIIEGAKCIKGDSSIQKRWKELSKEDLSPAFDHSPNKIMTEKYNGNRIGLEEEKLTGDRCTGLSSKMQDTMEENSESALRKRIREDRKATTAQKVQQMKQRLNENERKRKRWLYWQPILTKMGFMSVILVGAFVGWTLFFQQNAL
# assay protocol: PTPN2 biochemical assay, high DTT (PhosphoSens)
# measurement parameters: high DTT concentration assay; read-out: PTPN2 BChem HIGHDTT IC50
experimental readout: IC50 (nM)
Number in nM, nothing else.

Incoming: Which value of IC50 has been reported for O=C1CN(c2c(F)cc(CNc3cc(C4CC4)ccn3)c3cn[nH]c23)S(=O)(=O)N1 [Example 4] in the records?
Outgoing: 1

---

# Tested on: phosphorylated STAT1 in B16-F10 cells
# assay protocol: Phospho-STAT1 (Tyr701) HTRF assay in B16-F10 cells
# Type: cell-based
# measurement parameters: 100 ng/mL mouse IFN-gamma, 1 hour, read-out: pSTAT1 HTRF B16 EC50
experimental readout: EC50

Example compounds with recorded EC50:
[
  {
    "given smiles": "O=C1CN(c2c(F)cc(CNc3cc(C4CC4)ccn3)c3cn[nH]c23)S(=O)(=O)N1",
    "EC50": "3.12 µM"
  },
  {
    "given smiles": "Cc1cc(NCc2cc(F)c(N3CC(=O)NS3(=O)=O)c3[nH]ncc23)ncc1C#N",
    "EC50": "9.21 µM"
  }
]

Continue with the next compound.
Incoming: Which value of EC50 has been reported for COc1cc(C)nc(NCc2cc(F)c(N3CC(=O)NS3(=O)=O)c3[nH]ncc23)c1 in the records?
Outgoing: 0.091 µM
